Experiment: protein stability index of a GFP-peptide fusion (yeast GPS) (PSI 1-4); higher = more stable; sorted into four equal gates, so the index is relative within each strain
Conditions: pdr5∆
quantity: protein stability index

Please review the following examples before continuing.
> print(dat)
             sequence.record  observed
1   MSHRKYEAPRHGHLGFL [RPL3]      3.15
2   SYFLQERYFDCCTKFFT [PCI8]      1.52
3  NYKQLTLVGGGAKITPE [RRP43]      1.94
4  TNILTKVDINADSAVNR [PRP28]       3.4
5   EAIDGNGEIKGENIDAD [SNF2]       3.4

Reported protein stability index of VQGSTLAQLTSKLIPEV [RPS1A] : 2.96

Reported protein stability index of AVSIETALEHKVVNGNS [FAS2] : 1.37

Reported protein stability index of VSNPIRKVFKPSQGMVV [FAS1] : 2.74

Reported protein stability index of PHLLKQGLAMVEKYAPD [RRP42] : 2.35

Reported protein stability index of VPHSHPSDMVIPDHLAE [SNF12] : 2.39

Reported protein stability index of ESDNYRLLPNGSNKAQI [YML031W/NDC1] : 3.18

Reported protein stability index of TCILHGPVAAQFTKVID [FAS1] : 2.25

Reported protein stability index of QAQQAQQAQARLQQGRR [SNF2] : 3.11

Reported protein stability index of VPVIVKARFVSKLAEEK [RPL28] : 2.83

Reported protein stability index of VKTTLVSLTQLRCVKYL [RPC82] : 1.27

Reported protein stability index of VSTKMHRTIVIRRAYLH [RPS11A] : 1.14

Reported protein stability index of ETLVLSYFSPINSSNEA [YCG1] : 1.55

Reported protein stability index of KTKEAVAALKAVGAHSD [RPL4A] : 3.51

Reported protein stability index of RKILESSNIVNENDSQA [YIL149C/MLP2] : 2.88

Reported protein stability index of LKSLNDIETQLCSMLQE [MED11] : 2.91

Reported protein stability index of IRKLTLRDTFIELDQVL [RPO21] : 2.89

Reported protein stability index of YAKEDAFSYPRMYEEAS [RPN2] : 1.35

Reported protein stability index of KVEIKKVNSRDDSFFNE [PRP28] : 3.31

Reported protein stability index of LNNLPYKNEDVTALLEQ [YCS4] : 3.09
